tested on: Hep G2 cells; assay: Annexin V-FITC/PI flow cytometry (apoptosis), Hep G2; type: cell-based, human; settings: Hep G2, 72 h at IC50 concentration, mean ± S.E.M.
Entries and their measured Necrosis follow.

{"SAMPLE SMILES": "CC1(C)CC[C@]2(C(=O)NCCCNC(=O)Cc3cc(=O)oc4cc(O)ccc34)CC[C@]3(C)C(=CC[C@@H]4[C@@]5(C)C[C@@H](O)[C@H](O)C(C)(C)[C@@H]5CC[C@]43C)[C@@H]2C1", "Necrosis [%]": 1.9}
{"SAMPLE SMILES": "CC1(C)CC[C@]2(C(=O)O)CC[C@]3(C)C(=CC[C@@H]4[C@@]5(C)C[C@@H](OC(=O)c6cc7ccccc7oc6=O)[C@H](OC(=O)c6cc7ccccc7oc6=O)C(C)(C)[C@@H]5CC[C@]43C)[C@@H]2C1", "Necrosis [%]": 4.2}
{"SAMPLE SMILES": "CC1(C)CC[C@]2(C(=O)NCCCNC(=O)c3cc4ccccc4oc3=O)CC[C@]3(C)C(=CC[C@@H]4[C@@]5(C)C[C@@H](O)[C@H](O)C(C)(C)[C@@H]5CC[C@]43C)[C@@H]2C1", "Necrosis [%]": 1.8}
{"SAMPLE SMILES": "CC1(C)CC[C@]2(C(=O)NCCCNC(=O)/C=C/c3ccc(O)cc3)CC[C@]3(C)C(=CC[C@@H]4[C@@]5(C)C[C@@H](O)[C@H](O)C(C)(C)[C@@H]5CC[C@]43C)[C@@H]2C1", "Necrosis [%]": 2.2}

----------
Entries and their measured Viable Cells follow.
tested on: HT29 cells; test: Annexin V-FITC/PI flow cytometry (apoptosis), HT29; format: cell-based, human; conditions: HT29, 72 h at IC50 concentration, mean ± S.E.M.

{"SAMPLE SMILES": "CC1(C)CC[C@]2(C(=O)O)CC[C@]3(C)C(=CC[C@@H]4[C@@]5(C)C[C@@H](OC(=O)c6cc7ccccc7oc6=O)[C@H](OC(=O)c6cc7ccccc7oc6=O)C(C)(C)[C@@H]5CC[C@]43C)[C@@H]2C1", "UNIT NAME": "%", "Viable Cells": 35.7}
{"SAMPLE SMILES": "CC1(C)CC[C@]2(C(=O)NCCCNC(=O)/C=C/c3ccc(O)cc3)CC[C@]3(C)C(=CC[C@@H]4[C@@]5(C)C[C@@H](O)[C@H](O)C(C)(C)[C@@H]5CC[C@]43C)[C@@H]2C1", "UNIT NAME": "%", "Viable Cells": 52.9}
{"SAMPLE SMILES": "CC1(C)CC[C@]2(C(=O)NCCCNC(=O)c3cc4ccccc4oc3=O)CC[C@]3(C)C(=CC[C@@H]4[C@@]5(C)C[C@@H](O)[C@H](O)C(C)(C)[C@@H]5CC[C@]43C)[C@@H]2C1", "UNIT NAME": "%", "Viable Cells": 56.3}
{"SAMPLE SMILES": "CC1(C)CC[C@]2(C(=O)NCCCNC(=O)Cc3cc(=O)oc4cc(O)ccc34)CC[C@]3(C)C(=CC[C@@H]4[C@@]5(C)C[C@@H](O)[C@H](O)C(C)(C)[C@@H]5CC[C@]43C)[C@@H]2C1", "UNIT NAME": "%", "Viable Cells": 41.4}

----------
Entries and their measured melting point follow.

{"SAMPLE SMILES": "CC1(C)CC[C@]2(C(=O)NCCCCCCCCCCNC(=O)Cc3cc(=O)oc4cc(O)ccc34)CC[C@]3(C)C(=CC[C@@H]4[C@@]5(C)C[C@@H](O)[C@H](O)C(C)(C)[C@@H]5CC[C@]43C)[C@@H]2C1", "melting point": "120 to 122 °C"}
{"SAMPLE SMILES": "CC1(C)CC[C@]2(C(=O)NCCCCCCCCCCNC(=O)/C=C/c3ccc(O)cc3)CC[C@]3(C)C(=CC[C@@H]4[C@@]5(C)C[C@@H](O)[C@H](O)C(C)(C)[C@@H]5CC[C@]43C)[C@@H]2C1", "melting point": "104 to 106 °C"}
{"SAMPLE SMILES": "CC1(C)CC[C@]2(C(=O)NCCCNC(=O)Cc3cc(=O)oc4cc(O)ccc34)CC[C@]3(C)C(=CC[C@@H]4[C@@]5(C)C[C@@H](O)[C@H](O)C(C)(C)[C@@H]5CC[C@]43C)[C@@H]2C1", "melting point": "143 to 145 °C"}
{"SAMPLE SMILES": "CC1(C)CC[C@]2(C(=O)NCCCNC(=O)c3cc4ccccc4oc3=O)CC[C@]3(C)C(=CC[C@@H]4[C@@]5(C)C[C@@H](O)[C@H](O)C(C)(C)[C@@H]5CC[C@]43C)[C@@H]2C1", "melting point": "69 to 71 °C"}

----------
test system: Hep G2 cells; assay: Annexin V-FITC/PI flow cytometry (apoptosis), Hep G2; type: cell-based, human; conditions: Hep G2, 72 h at IC50 concentration, mean ± S.E.M.
Entries and their measured Viable Cells follow.

{"SAMPLE SMILES": "CC1(C)CC[C@]2(C(=O)NCCCNC(=O)Cc3cc(=O)oc4cc(O)ccc34)CC[C@]3(C)C(=CC[C@@H]4[C@@]5(C)C[C@@H](O)[C@H](O)C(C)(C)[C@@H]5CC[C@]43C)[C@@H]2C1", "Viable Cells": "29.7 ± 1.3%"}
{"SAMPLE SMILES": "CC1(C)CC[C@]2(C(=O)NCCCNC(=O)/C=C/c3ccc(O)cc3)CC[C@]3(C)C(=CC[C@@H]4[C@@]5(C)C[C@@H](O)[C@H](O)C(C)(C)[C@@H]5CC[C@]43C)[C@@H]2C1", "Viable Cells": "21.9 ± 1.3%"}
{"SAMPLE SMILES": "CC1(C)CC[C@]2(C(=O)NCCCNC(=O)c3cc4ccccc4oc3=O)CC[C@]3(C)C(=CC[C@@H]4[C@@]5(C)C[C@@H](O)[C@H](O)C(C)(C)[C@@H]5CC[C@]43C)[C@@H]2C1", "Viable Cells": "28.8 ± 2.8%"}
{"SAMPLE SMILES": "CC1(C)CC[C@]2(C(=O)O)CC[C@]3(C)C(=CC[C@@H]4[C@@]5(C)C[C@@H](OC(=O)c6cc7ccccc7oc6=O)[C@H](OC(=O)c6cc7ccccc7oc6=O)C(C)(C)[C@@H]5CC[C@]43C)[C@@H]2C1", "Viable Cells": "55.0 ± 1.4%"}

----------
tested on: B16-F10, HT29, and Hep G2 cancer cell lines; experiment: MTT assay, statements over the three cancer cell lines; assay type: cell-based; conditions: 72 h, read-out: IC50 (cytotoxicity), cell line not distinguished
pIC50: −log10 of the molar value.
MEASUREMENT TYPE: pIC50

{"SAMPLE SMILES": "Cc1cc(=O)oc2cc(NC(=O)[C@]34CCC(C)(C)C[C@H]3C3=CC[C@@H]5[C@@]6(C)C[C@@H](O)[C@H](O)C(C)(C)[C@@H]6CC[C@@]5(C)[C@]3(C)CC4)ccc12", "MEASURED RESULT": "< 5.00"}
{"SAMPLE SMILES": "Cc1cc(=O)oc2cc(NC(=O)[C@]34CCC(C)(C)C[C@H]3C3=CC[C@@H]5[C@@]6(C)C[C@@H](OC(=O)c7cc8ccccc8oc7=O)[C@H](OC(=O)c7cc8ccccc8oc7=O)C(C)(C)[C@@H]6CC[C@@]5(C)[C@]3(C)CC4)ccc12", "MEASURED RESULT": "< 5.00"}

----------
test: MTT assay, statements over the three nontumor cell lines; type: cell-based; conditions: human, rat, at the IC50 concentration of the respective cancer cell line; over HPF, IEC-18, WRL68; read-out: cell viability percentage of nontumor cells
MEASUREMENT TYPE: viability at 72 h (%)

{"COMPOUND": "CC1(C)CC[C@]2(C(=O)O)CC[C@]3(C)C(=CC[C@@H]4[C@@]5(C)C[C@@H](OC(=O)c6cc7ccccc7oc6=O)[C@H](OC(=O)c6cc7ccccc7oc6=O)C(C)(C)[C@@H]5CC[C@]43C)[C@@H]2C1 [Compound 10]", "MEASUREMENT TYPE": "viability at 72 h", "UNIT NAME": "%", "MEASURED RESULT": 90}

----------
system: B16–F10 cells; assay: Annexin V-FITC/PI flow cytometry (apoptosis), B16–F10; assay type: cell-based, murine; settings: B16-F10, 72 h at IC50 concentration, mean ± S.E.M.
Entries and their measured Viable Cells follow.

{"COMPOUND": "CC1(C)CC[C@]2(C(=O)NCCCNC(=O)Cc3cc(=O)oc4cc(O)ccc34)CC[C@]3(C)C(=CC[C@@H]4[C@@]5(C)C[C@@H](O)[C@H](O)C(C)(C)[C@@H]5CC[C@]43C)[C@@H]2C1 [Compound 4]", "Viable Cells / %": 14.0}
{"COMPOUND": "CC1(C)CC[C@]2(C(=O)NCCCNC(=O)/C=C/c3ccc(O)cc3)CC[C@]3(C)C(=CC[C@@H]4[C@@]5(C)C[C@@H](O)[C@H](O)C(C)(C)[C@@H]5CC[C@]43C)[C@@H]2C1 [Compound 7]", "Viable Cells / %": 39.3}
{"COMPOUND": "CC1(C)CC[C@]2(C(=O)NCCCNC(=O)c3cc4ccccc4oc3=O)CC[C@]3(C)C(=CC[C@@H]4[C@@]5(C)C[C@@H](O)[C@H](O)C(C)(C)[C@@H]5CC[C@]43C)[C@@H]2C1 [Compound 1]", "Viable Cells / %": 30.5}
{"COMPOUND": "CC1(C)CC[C@]2(C(=O)O)CC[C@]3(C)C(=CC[C@@H]4[C@@]5(C)C[C@@H](OC(=O)c6cc7ccccc7oc6=O)[C@H](OC(=O)c6cc7ccccc7oc6=O)C(C)(C)[C@@H]5CC[C@]43C)[C@@H]2C1 [Compound 10]", "Viable Cells / %": 53.4}

Provenance of the data: paper PMC8476055
